biological target: Prostaglandin D2 receptor 2 (Homo sapiens, UniProt Q9Y5Y4); test: Displacement of [3H]PGD2 from human CRTh2 expressed in HEK293 cells
Sequence (Q9Y5Y4 whole entry): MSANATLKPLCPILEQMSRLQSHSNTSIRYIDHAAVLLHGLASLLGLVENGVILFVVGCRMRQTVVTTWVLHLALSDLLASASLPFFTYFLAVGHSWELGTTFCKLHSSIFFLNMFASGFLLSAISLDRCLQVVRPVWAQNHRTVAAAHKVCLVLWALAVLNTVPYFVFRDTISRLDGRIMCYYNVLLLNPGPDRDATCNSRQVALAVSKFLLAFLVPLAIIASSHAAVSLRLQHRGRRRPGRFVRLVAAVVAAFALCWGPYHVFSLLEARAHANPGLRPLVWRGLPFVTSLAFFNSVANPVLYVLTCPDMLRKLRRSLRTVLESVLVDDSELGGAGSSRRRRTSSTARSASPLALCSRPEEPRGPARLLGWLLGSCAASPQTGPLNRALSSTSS
Let's look at some compounds and their measured IC50.
Output spec: scalar in µM, unitless text.

COc1ccc2c(c1)c(CC(=O)O)c(C)n2-c1ccnc2cc(Cl)ccc12 ... 0.18

**Q:** Any idea what its IC50 is? The compound is Cc1ccc2c(c1)c(-c1ccnc3cc(C(F)(F)F)ccc13)c(C)n2CC(=O)O
**A:** 0.0054

**Q:** Okay, and Cc1ccc2c(c1)c(-c1ccnc3ccccc13)c(C)n2CC(=O)O ?
**A:** 0.021

**Q:** Okay, and Cc1ccc2c(c1)c(-c1ccnc3ccc(C(F)(F)F)cc13)c(C)n2CC(=O)O ?
**A:** 0.068

**Q:** Okay, and Cc1c(CC(=O)O)c2ccccc2n1-c1ccncn1 ?
**A:** 5.2

**Q:** Okay, and Cc1ccc2c(c1)c(-c1cc(C)nc3ccccc13)c(C)n2CC(=O)O ?
**A:** 0.018

**Q:** Okay, and Cc1ccc2c(c1)c(-c1ccnc3c(C(F)(F)F)cccc13)c(C)n2CC(=O)O ?
**A:** 0.006

**Q:** Okay, and Cc1ccc2c(c1)c(-c1ccnc3c(C#N)cccc13)c(C)n2CC(=O)O ?
**A:** 0.018

The origin of these recorded values is ChEMBL document CHEMBL1138972.
